- Test system: Inhibin beta A chain (activin A)
- assay: INHBA (activin A) binders on microarrays, primary screen, biochemical, small-molecule microarray, 635 nm fluorescence scan (AID 1107);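 further: mouse activin A protein probed at 4.33 µg/mL on printed slides; score merges bound-protein fluorescence near 667 nm with spot signal-to-noise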
- condition: small-molecule microarray binding, higher = more signal
readout_name: composite z-score
Answer with a number only.

Before answering, review these 4 worked examples.
> print(dat)
                                   compound  result.value
1  CCN1C(=O)[C@H]2[C@H]3[C@H](O)[C@H](O)CC(=NOC(C)CN4CCCc5nc(C)c(C)cc54)[C@@H]3CC[C@H]2C1=O (stereo not given in full)         0.907
2  C=CCOCC1CN2[C@@H](CC[C@@H](C)[C@@H]2c2ccc(Br)cc2)C(=O)O1 (stereo not given in full)         0.757
3  CC(CCN1CCc2nc(-c3ccccc3)c(-c3ccccc3)cc2C1)=NO[C@@H](C)c1cc(-c2c(C)cc(C)cc2C)no1           0.5
4  CCO[C@H](c1cc(OC)cc([N+](=O)[O-])c1OC)[C@H](C)[C@@H](OC)[C@H](C)C=CCC(=O)OC        -0.334

Record summary for CCN1C(=O)[C@H]2[C@H]3[C@H](O)[C@H](O)CC(=NO[C@@H](C)c4cc(-c5c(C)cc(C)cc5C)no4)[C@@H]3CC[C@H]2C1=O : reported composite z-score = -0.989

====

Measured composite z-score values are reported for all entries that follow.
- assay_target: Follistatin (Homo sapiens)
- assay: follistatin binders on small-molecule microarrays, primary screen, biochemical, small-molecule microarray, 635/667 nm fluorescence (AID 1132)
- condition: FST binding, 635 nm fluorescence, higher = more signal

Reference set (4 entries):
> print(dat)
                           structure.string                assay.target  result.value
1  C=CC[C@@H]1C=C[C@H](ON=C(C)CCN2CCCc3nc(C)c(C)cc32)[C@@H](CO)O1  Follistatin (Homo sapiens)          1.25
2  CC(C)[C@@H](OCc1ccccc1)[C@H](C)C=NOC[C@@H](O)[C@H]1O[C@@H]2OC(C)(C)O[C@@H]2[C@H]1O  Follistatin (Homo sapiens)         0.214
3  CO[C@@H]1C=CCC(=O)N[C@@H](C)C(=O)OC[C@@H](OC)[C@H](C)C=CCC(=O)OC[C@H]1C  Follistatin (Homo sapiens)          1.39
4  CCOC(=O)CCN1C(=O)[C@H]2[C@H]3[C@H](O)[C@H](O)CC(=NNC(=O)OCc4ccccc4)[C@H]3CC[C@H]2C1=O  Follistatin (Homo sapiens)          0.44

Observed composite z-score on Follistatin (Homo sapiens), entry C[C@H]1CC[C@@H](C(=O)O)N[C@@H]1c1ccc(C#Cc2ccccc2)cc1 , equals 1.07

====

- assay_target: Carbonic anhydrase 2 (Homo sapiens)
- assay: CAII small-molecule binders, profiling panel, biochemical, small-molecule microarray, Alexa647-labelled CAII (AID 1122)
- condition: CAII-A647 binding fluorescence, higher = more signal
We use -0.1 as the dividing line for composite z-score: on or above the line is MET, below is NOT MET.

Example cases with answers are listed next.
> print(dat)
                                   compound                         assay.target    label
1  CON=C1c2cc(OC)ccc2O[C@H](c2cccc(OC)c2)[C@H]1O  Carbonic anhydrase 2 (Homo sapiens)      MET
2  CC(C)=CCCC(C)=CCON=C1C[C@@H](O)[C@@H](O)[C@@H]2[C@@H]3C(=O)N([C@@H](C)c4ccccc4)C(=O)[C@@H]3CC[C@@H]12  Carbonic anhydrase 2 (Homo sapiens)      MET
3  CCc1cc2c(nc1CC)CCN(CCC(C)=NOC[C@@H](C)[C@H](OCc1ccccc1)C(C)C)C2  Carbonic anhydrase 2 (Homo sapiens)  NOT MET
4  CO[C@H]1COC(=O)CCC[C@H](C)[C@@H](OC)COC(=O)CC=C[C@@H]1C  Carbonic anhydrase 2 (Homo sapiens)  NOT MET
5  CC(CCN1CCCCc2nc(C)c(C)cc21)=NO[C@@H](C)c1cc(-c2c(C)cc(C)cc2C)no1  Carbonic anhydrase 2 (Homo sapiens)      MET

Dear colleague, could you confirm whether CCN1C(=O)[C@H]2[C@H]3[C@H](O)[C@H](O)CC(=NOC(C)CN4CCCc5nc(C)c(C)cc54)[C@@H]3CC[C@H]2C1=O (some centres undefined) has composite z-score at or above -0.1?
MET

Could you tell me if the measured composite z-score of CCOC(=O)CCN1C(=O)[C@H]2[C@H]3[C@H](O)[C@H](O)CC(=NOCC=C(C)CCC=C(C)C)[C@H]3CC[C@H]2C1=O reaches -0.1 or more?
NOT MET

Is it the case that COCC#Cc1ccc([C@@H]2N[C@H](C(=O)O)CC[C@H]2C)cc1 has composite z-score reaching or exceeding -0.1?
NOT MET

Can COC(=O)CC=C1c2ccccc2[C@H](OC)[C@H]1C be said to have composite z-score at or above -0.1?
NOT MET

Exam item: decide whether the reported composite z-score for COc1ccc(OC[C@@H]2CC3[C@@H](c4ccc(Br)cc4)[C@H](C)CC[C@H]3C(=O)O2)cc1 (some centres undefined) is at least -0.1.
NOT MET
